Where these numbers come from: patent US8927571B2

Target: human recombinant histamine H2 receptor (Homo sapiens, UniProt P25021)
Construct: expressed in transfected cells; host or cells: Chinese hamster ovary (CHO) K1 cells
Sequence (P25021 whole entry): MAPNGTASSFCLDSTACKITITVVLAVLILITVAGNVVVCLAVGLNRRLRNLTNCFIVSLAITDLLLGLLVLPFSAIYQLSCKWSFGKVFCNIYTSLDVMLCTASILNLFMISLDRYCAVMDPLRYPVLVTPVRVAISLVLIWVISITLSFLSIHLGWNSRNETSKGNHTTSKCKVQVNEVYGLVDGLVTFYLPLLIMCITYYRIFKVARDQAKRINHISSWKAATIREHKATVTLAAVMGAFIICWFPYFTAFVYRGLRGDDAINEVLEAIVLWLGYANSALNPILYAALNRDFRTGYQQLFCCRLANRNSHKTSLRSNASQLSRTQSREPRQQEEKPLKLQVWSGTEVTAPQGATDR
Assay: Histamine H2 radioligand binding assay ([125I]Aminopotentidine)
Settings: percent inhibition of specific binding of 0.1 nM [125I]Aminopotentidine; compounds screened at 1 μM or lower
Here the recorded Binding Data (% Inhibition) Histamine Binding H2 is given for each entry.
Report as a plain number; the unit % is understood.

Some compounds with known Binding Data (% Inhibition) Histamine Binding H2 results, for comparison:
- CCOC(=O)CC(Cn1c2c(c3cc(C)ccc31)CN(C)CC2)c1ccc(F)cc1 (stereo not shown) [Compound 6]: 86
- CN1CCc2c(c3cc(Cl)ccc3n2CC2(c3ccc(F)cc3)OCCO2)C1 [Compound 4]: 96

Need Binding Data (% Inhibition) Histamine Binding H2 of Cc1ccc2c(c1)c1c(n2CC(CC(=O)O)c2ccc(F)cc2)CCN(C)C1 (stereo not shown) [Compound 7] , thanks.
5

Need Binding Data (% Inhibition) Histamine Binding H2 of CN1CCc2c(c3cc(Cl)ccc3n2CC2(c3ccc(Cl)cc3)OCCO2)C1 [Compound 5] , thanks.
98

Need Binding Data (% Inhibition) Histamine Binding H2 of Cc1ccc2c(c1)c1c(n2CC2(c3ccccc3)OCCO2)CCN(C)C1 [Compound 2] , thanks.
89

Need Binding Data (% Inhibition) Histamine Binding H2 of Cc1ccc2c(c1)c1c(n2CC2(c3ccc(F)cc3)OCCO2)CCN(C)C1 [Compound 3] , thanks.
96

Need Binding Data (% Inhibition) Histamine Binding H2 of CNC(=O)CC(Cn1c2c(c3cc(C)ccc31)CN(C)CC2)c1ccc(F)cc1 (stereo not shown) [Compound 8] , thanks.
22
